Target: Prolyl endopeptidase-like (Homo sapiens)
Experiment: PREPL enzyme inhibitors, primary screen, biochemical, fluorescence polarization (AID 2751);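 note: 0% = enzyme with DMSO and 100% = wells lacking enzyme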
Details: recombinant PREPL, fluorescence polarization activity-based probe; at 5.96 µM; hits give high values
In all, about 320,000 compounds went through this assay and about 2,200 (0.69%) were called active. This is one part of a sample in which actives are shown more often than they occur.
Give measured inhibition for each item. Keep answers brief.
Answers are plain numbers, in %.

Use the examples below as a reference point.
[
  {
    "Molecule": "Cn1c(CCN2CCCCCC2)nc2cc(NC(=O)Nc3ccccc3)ccc21",
    "Endpoint Result": 53
  },
  {
    "Molecule": "CC(C)CCNc1nc(N2CCCC2)c2c(c1C#N)CCN(C)C2",
    "Endpoint Result": 55.6
  },
  {
    "Molecule": "O=C(O)CSCc1ccc(C(=O)O)o1",
    "Endpoint Result": 7.09
  }
]

Give inhibition for each of the items listed below.
1. CC(C)(C)C(=O)N1CCC[C@@]1(CO)C(=O)O
2. CCc1nc(NCCO)c(C#N)c2c1CCCC2

[6.21, 7.84]

# map each molecule to its inhibition
1. CCN1C(=O)c2cccc3c(N)ccc1c23
2. Nc1ccc(Nc2ccccc2)cc1
3. COC(=O)COc1ccc(S(=O)(=O)Nc2ccc(NC(C)=O)cc2)cc1

1: 45.6; 2: 94.7; 3: 3.49
